Here the recorded polymerase ribozyme fitness (log ratio) is given for each entry.
B1: TPR 5TU (parent)
chain: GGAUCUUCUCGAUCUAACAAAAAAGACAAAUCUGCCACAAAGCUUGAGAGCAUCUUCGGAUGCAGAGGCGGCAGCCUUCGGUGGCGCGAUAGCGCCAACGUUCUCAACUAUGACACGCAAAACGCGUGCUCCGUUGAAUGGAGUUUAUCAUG

Variants of: B1
METHOD_DESCRIPTION: polymerase ribozyme fitness, log enrichment relative to wild type (log ratio); higher = more active; in vitro selection for triplet polymerase activity
This sample holds only a part of the variants without activity.
Answer as a number with no unit attached.

Known results for variants:
>  <RESIDUE_CHANGE>
G94U A98U C99G A147G

>  <ASSAY_VALUE>
-3.16

$$$$
>  <RESIDUE_CHANGE>
U31G G84A A89G

>  <ASSAY_VALUE>
-0.747

$$$$

polymerase ribozyme fitness (log ratio) for A89U C96U C118U A122G U139G is -0.0743
